# assay.procedure: Screen of EC formulations for substances that photoprotect emamectin benzoate
# Type: physicochemical
# Parameters: key: #1 represents no improvement; #3 represents those photoprotectants that conferred a significant improvement in photostability
# applied.conditions: performance of the photostabiliser relative to the non-photostabilised EC; 2% w/w emamectin benzoate EC, photoprotectant to insecticide 1:1; deposits on glass irradiated in Suntest, HPLC-MS
measured.quantity: Screen Result
Give the figure only, with no unit attached.

compound=CC(C)Nc1ccc(NC(C)C)c2c1C(=O)c1ccccc1C2=O measured_quantity="Screen Result" value_observed=3

# compound "CC(C)(C)CC(C)(C)c1ccc([O-])c(Sc2cc(C(C)(C)CC(C)(C)C)ccc2[O-])c1.CCCCN.[Ni+2]" ; its Screen Result = 3

# compound "Cc1ccccc1N=Nc1cc(C)c(N=Nc2c(O)ccc3ccccc23)cc1C" ; its Screen Result = 3

# compound "Cc1cc(S(=O)(=O)[O-])ccc1N=Nc1c(O)ccc2ccccc12.[Na+]" ; its Screen Result = 3

# compound "CC1(C)Nc2cccc3c(N=Nc4ccc(N=Nc5ccccc5)c5ccccc45)ccc(c23)N1" ; its Screen Result = 3

# compound "CCN(CCC#N)c1ccc(N=Nc2ccc([N+](=O)[O-])cc2)cc1" ; its Screen Result = 3
